# Target system: T1, human serum albumin (human, UniProt P02768 25-609)
# T1 construct: Bought protein, immobilized on a CM5 chip by amine coupling; also called Human SA
# Experimental protocol: SPR (Biacore 8K), albumin immobilized on CM5 chip, 25 C, 1:1 kinetic fit
pKd: −log10 of the molar value.
Property label: pKd

• RLN Analog 6 (other, Single-chain fusion: RLN2 B chain (desB1) - L2 - RLN2 A chain - PGPQ-repeat L1 - VHH (C-terminal)) SWMEEVIKLCGRELVRAQIAICGMSTWSGGGSGGSGGGQLYSALANKCCHVGCTKRSLARFCPGPQPGPQPGPQPGPQPGPQPGPQPGPQPGPQEVQLLESGGGLVQPGGSLRLSCAASGRYIDETAVAWFRQAPGKEREFVAGIGGGVDITYYADSVKGRFTISRDNSKNTLYLQMNSLRPEDTAVYYCAARPGRPLITSKVADLYPYWGQGTLVTVSSPP = 9.29
• RLN Analog 13 (other, Single-chain fusion: VHH - (G4Q)5 L1 - RLN2 A chain (desA1-4) - L2 - RLN2 B chain (desB1)) EVQLLESGGGLVQPGGSLRLSCAASGRYIDETAVAWFRQAPGKGREFVAGIGGGVDITYYADSVKGRFTISRDNSKNTLYLQMNSLRPEDTAVYYCAARPGRPLITSKVADLYPYWGQGTLVTVSSGGGGQGGGGQGGGGQGGGGQGGGGQALANKCCHVGCTKRSLARFCGGGSGGSGGGSWMEEVIKLCGRELVRAQIAICGMSTWS = 9.85
• RLN Analog 1 (other) EVQLLESGGGLVQPGGSLRLSCAASGRYIDETAVAWFRQAPGKEREFVAGIGGGVDITYYADSVKGRFTISRDNSKNTLYLQMNSLRPEDTAVYYCAARPGRPLITSKVADLYPYWGQGTLVTVSSGGGGQGGGGQGGGGQGGGGQGGGGQQLYSALANKCCHVGCTKRSLARFCGGGSGGSGGGSWMEEVIKLCGRELVRAQIAICGMSTWS = 9.96
• RLN Analog 10 (other, Single-chain fusion: RLN2 B chain (desB1) - L2 - RLN2 A chain - (PGPQ)8 L1 - VHH (C-terminal)) SWMEEVIKLCGRELVRAQIAICGMSTWSGGGSGGSGGGQLYSALANKCCHVGCTKRSLARFCPGPQPGPQPGPQPGPQPGPQPGPQPGPQPGPQEVQLLESGGGLVQPGGSLRLSCAASGRYIDETAVAWFRQAPGKGREFVAGIGGGVDITYYADSVKGRFTISRDNSKNTLYLQMNSLRPEDTAVYYCAARPGRPLITSKVADLYPYWGQGTLVTVSSPP = 9.43
• RLN Analog 2 (other, Single-chain fusion: VHH - (PGPA)8 L1 - RLN2 A chain - L2 - RLN2 B chain (desB1)) EVQLLESGGGLVQPGGSLRLSCAASGRYIDETAVAWFRQAPGKEREFVAGIGGGVDITYYADSVKGRFTISRDNSKNTLYLQMNSLRPEDTAVYYCAARPGRPLITSKVADLYPYWGQGTLVTVSSPGPAPGPAPGPAPGPAPGPAPGPAPGPAPGPAQLYSALANKCCHVGCTKRSLARFCGGGSGGSGGGSWMEEVIKLCGRELVRAQIAICGMSTWS = 10.00

Provenance of the data: patent US20260125446A1
